- Format: physicochemical
- Details: 20–21 °C, corrected for phase volume ratio vO/vW
Measured Attribute: log KOW (eq 5b)

compound="CCOC(C)=O [ethyl acetate]" measured_attribute="log KOW (eq 5b)" endpoint_value=0.88

A = CC(C)CO
B = COC(C)=O [methyl acetate]
## Input API: POST /compare with A and B ; response names the item with higher log KOW (eq 5b). I would appreciate it if you answered with the label of your choice.
## Output A
(A: 0.89, B: 0.19)

###

- Type: physicochemical
- Details: 20–21 °C, corrected for phase volume ratio vO/vW
Measured Attribute: log KOW (eq 5b)

For orientation, consider the following solved cases.
compound="CO [methanol]" endpoint_value=–0.75
compound="CC#N [acetonitrile]" endpoint_value=–0.28
compound="CN(C)C=O [dimethylformamide]" endpoint_value=–1.03
compound="CCC(C)=O [butanone]" endpoint_value=0.33
compound="C1COCCO1 [1,4-dioxane]" endpoint_value=–0.31
compound="C1CCOC1 [tetrahydrofuran]" endpoint_value=0.44
compound="CCC(C)O (centres unmarked) [2-butanol]" endpoint_value=0.65

Consider the record given below.
## Input Param item = C[S+](C)[O-] [dimethyl sulfoxide] ; retrieve measured log KOW (eq 5b).
## Output –1.87
